biological target: GLP-1 receptor (GLP-1R), stably expressed on HEK293 cells; test: cell-based or functional assay
Where no end group is shown, it is not given here. [ ]: non-standard residue; d: D form. Aib = CC(C)(N)C(=O)O
So I've got a bunch of binders here, and I need their GLP-1R (nM EC50), receptor-mediated cAMP production in HEK293 cells values.
Answers are plain numbers, in nM.

[
  {
    "Binder": "H[Aib]QGTFTSDYSKYLEERAAKEFIAWLEAGG-NH2 (not fully specified (residue 20)) [dgc011]",
    "Experimental value": 0.955
  }
]

Okay, next one:
Field GLP-1R (nM EC50), receptor-mediated cAMP production in HEK293 cells (entry H[Aib]QGTFTSDYSKYLEERAAKEFIAWLESGG-NH2 (not fully specified (residue 20); printed as HAibQGTFTSDYSKYLEERAAK*EFIAWLESGG) [dgc009] ) reads 0.092

Data provenance is patent US20230174608A1.
